This collection of values is drawn from patent US20210230570.

target: plasma purified human antithrombin III (AT-III) in complex with full-length unfractionated heparin (UFH)
measured quantity: K0.5-mut/K0.5-wt (fold)
Give the quantity in fold, number only.

Task: # query: K0.5-mut/K0.5-wt of entry FIXa Y155F/K247N/N249S/R318Y/R338E/E410N (protein) chain 1: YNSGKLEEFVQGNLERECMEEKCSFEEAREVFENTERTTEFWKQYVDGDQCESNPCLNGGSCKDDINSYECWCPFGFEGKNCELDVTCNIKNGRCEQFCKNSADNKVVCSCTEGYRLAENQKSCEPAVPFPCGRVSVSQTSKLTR chain 2: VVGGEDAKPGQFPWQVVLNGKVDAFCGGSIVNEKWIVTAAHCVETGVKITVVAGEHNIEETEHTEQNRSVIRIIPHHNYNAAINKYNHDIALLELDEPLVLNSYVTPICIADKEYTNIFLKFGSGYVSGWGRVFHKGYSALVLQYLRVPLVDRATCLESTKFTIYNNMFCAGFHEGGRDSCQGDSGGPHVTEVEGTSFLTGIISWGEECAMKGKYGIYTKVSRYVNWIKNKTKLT
Result: 200
